Below are compounds with their pIC50 as measured on cGMP-dependent 3',5'-cyclic phosphodiesterase (Homo sapiens, UniProt O00408).
Sequence (O00408 whole entry): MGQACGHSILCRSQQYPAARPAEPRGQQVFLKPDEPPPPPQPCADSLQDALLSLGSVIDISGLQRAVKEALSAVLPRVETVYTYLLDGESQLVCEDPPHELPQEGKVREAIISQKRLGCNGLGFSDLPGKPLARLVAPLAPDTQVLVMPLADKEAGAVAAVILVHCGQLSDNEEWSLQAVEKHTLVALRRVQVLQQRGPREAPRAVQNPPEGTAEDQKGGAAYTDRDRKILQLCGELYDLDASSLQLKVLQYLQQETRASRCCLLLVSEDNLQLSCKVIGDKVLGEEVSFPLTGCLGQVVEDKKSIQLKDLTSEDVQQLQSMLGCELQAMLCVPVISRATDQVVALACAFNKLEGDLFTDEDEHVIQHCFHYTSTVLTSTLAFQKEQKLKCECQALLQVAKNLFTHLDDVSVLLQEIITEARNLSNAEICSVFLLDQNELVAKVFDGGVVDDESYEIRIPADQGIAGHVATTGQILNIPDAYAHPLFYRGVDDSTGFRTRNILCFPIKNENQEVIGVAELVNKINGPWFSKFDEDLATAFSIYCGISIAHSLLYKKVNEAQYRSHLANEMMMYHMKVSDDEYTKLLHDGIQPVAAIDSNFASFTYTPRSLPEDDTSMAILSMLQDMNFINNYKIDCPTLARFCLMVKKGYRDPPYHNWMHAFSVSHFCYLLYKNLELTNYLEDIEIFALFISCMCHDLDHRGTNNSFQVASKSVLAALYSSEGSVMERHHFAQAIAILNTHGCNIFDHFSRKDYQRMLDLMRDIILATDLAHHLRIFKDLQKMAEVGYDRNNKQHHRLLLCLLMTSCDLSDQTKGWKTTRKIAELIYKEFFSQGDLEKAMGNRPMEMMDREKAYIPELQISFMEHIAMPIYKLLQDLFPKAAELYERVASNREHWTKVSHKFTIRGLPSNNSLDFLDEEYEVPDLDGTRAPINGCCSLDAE
Give bare numbers, as −log10 of the molar value.

COc1ccc(C2=Nc3c(C(C)(C)C)nn(CCO)c3C(=O)NC2)cc1-c1cnc(N(C)C)nc1
8.60

Look at each compound and report its pIC50.
1. COc1ccc(C2=Nc3c(C(C)(C)C)nn(CCCO)c3C(=O)NC2)cc1-c1ccccc1F
2. COc1ccc(-c2cc(C3=Nc4c(C(C)(C)C)nn(CCCO)c4C(=O)NC3)ccc2OC)cn1
3. COc1ncc(-c2cc(C3=Nc4c(C(C)(C)C)nn(CCO)c4C(=O)NC3)ccc2OC)c(OC)n1
4. COc1ccc(-c2cc(C3=Nc4c(C(C)(C)C)nn(CCO)c4C(=O)NC3)ccc2OC)c(OC)n1

OUTPUT:
1. 6.23
2. 7.15
3. 8.03
4. 8.74

---

Target: UniProtKB Q07343
Sequence (Q07343 whole entry): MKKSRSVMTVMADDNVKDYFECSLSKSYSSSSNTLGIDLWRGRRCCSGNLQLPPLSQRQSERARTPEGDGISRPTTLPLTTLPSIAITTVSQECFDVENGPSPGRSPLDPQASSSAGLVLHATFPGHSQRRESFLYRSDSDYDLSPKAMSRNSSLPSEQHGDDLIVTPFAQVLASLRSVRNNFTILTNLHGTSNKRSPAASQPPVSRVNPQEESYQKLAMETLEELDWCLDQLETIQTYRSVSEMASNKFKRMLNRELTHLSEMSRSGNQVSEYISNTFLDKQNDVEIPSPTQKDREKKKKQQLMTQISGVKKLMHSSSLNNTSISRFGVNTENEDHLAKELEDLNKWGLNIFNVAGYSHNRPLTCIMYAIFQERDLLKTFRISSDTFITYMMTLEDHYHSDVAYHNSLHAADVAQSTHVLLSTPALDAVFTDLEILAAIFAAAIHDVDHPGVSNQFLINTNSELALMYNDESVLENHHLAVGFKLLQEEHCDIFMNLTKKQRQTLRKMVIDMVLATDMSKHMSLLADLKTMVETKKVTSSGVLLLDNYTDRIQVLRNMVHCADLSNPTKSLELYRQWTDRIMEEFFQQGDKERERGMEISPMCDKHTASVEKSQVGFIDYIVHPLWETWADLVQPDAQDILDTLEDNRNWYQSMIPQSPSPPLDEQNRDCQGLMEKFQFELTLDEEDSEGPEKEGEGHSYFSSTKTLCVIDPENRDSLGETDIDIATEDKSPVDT
OBSERVATION_TYPE: IC50 (nM)
Numbers only, in nM.

# example entries with known answers
COc1ccc(C2=Nc3c(C(C)(C)C)nn(CCO)c3C(=O)NC2)cc1-c1cnc(N(C)C)cc1C
534
COc1ccc(C2=Nc3c(C(C)(C)C)nn(CCO)c3C(=O)NC2)cc1-c1cnc(N2CCCCC2)nc1
353
COc1ncc(-c2cc(C3=Nc4c(C(C)(C)C)nn(CCO)c4C(=O)NC3)ccc2OC)cn1
562

// switching to the query molecule
INPUT: Quick one: IC50 of COc1ccc(-c2cc(C3=Nc4c(C(C)(C)C)nn(CCCO)c4C(=O)NC3)ccc2OC)c(OC)c1 ?
OUTPUT: 100000

---

Experiment: Fraction unbound in plasma of medial meniscal transection rat osteoarthritis pain model at 10 mg/kg, sc administered on day 28 post medial meniscal transection surgery measured at 1 hr to 3 hrs
Assay type: ADME, organism-based
Design: dose 10 mg/kg, route subcutaneous
OBSERVATION_TYPE: fraction unbound

INPUT: Quick one: fraction unbound of COc1ncc(-c2cc(C3=Nc4c(C(C)(C)C)nn(CCO)c4C(=O)NC3)ccc2OC)cn1 ?
OUTPUT: 0.032

---

Assay: Clearance in Sprague-Dawley rat at 1 mg/kg, iv and 10 mg/kg, po
Type: ADME, organism-based
Conditions: in vivo
Would you kindly list clearance for each of these compounds?
Give bare numbers, in mL/min/kg.

COc1ncc(-c2cc(C3=Nc4c(C(C)(C)C)nn(CCO)c4C(=O)NC3)ccc2OC)cn1
27
CCC(CC)c1nn(CCO)c2c1N=C(c1ccc(-n3ccnc3C)cc1)CNC2=O
70

INPUT: Quick one: clearance of COc1ccc(C2=Nc3c(C(C)(C)C)nn(CCCO)c3C(=O)NC2)cc1-c1cnn(C)c1 ?
OUTPUT: 43
